assay_summary: STM_H9_OrnithineISnorm_perc: Stemina devTOX quickPredict H9 human embryonic stem cell (hESC)-based Assay for Ornithine (ORN) Metabolite Biomarker, Normalized (AID 2283712);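 note: ornithine released into spent medium during last day measured by mass spectrometry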
The source made the active and inactive calls. Rule for the calls: active = hit-call score of the fitted dose curve at least 0.9, where 1 is the maximum; inactive = score below 0.9.
Entry note: the call must match one of y = active, n = inactive

OCCCBr n
Clc1ccc(C(c2ccc(Cl)cc2)C(Cl)(Cl)Cl)cc1 n

Please examine the following record next.
*Q* Name the outcome recorded for `Cc1ccc(N)cc1` in the assay.
*A* y

---

assay_summary: CCTE_Shafer_MEA_acute_per_burst_spike_number_mean: CCTE's Neural Acute Assay for Average Number of Spikes Per Burst, Shafer Lab (AID 2284015);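 note: hits are decreases in mean spikes per burst versus baseline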
Calls of active or inactive are those of the source. Rule for the calls: active = hit-call score of the fitted dose curve at least 0.9, where 1 is the maximum; inactive = score below 0.9.
Entry note: the call must match one of active, inactive

Past entries and their recorded results:
ClC1=C(Cl)[C@]2(Cl)[C@H]3[C@H]([C@@H]4C=C[C@H]3C4)[C@@]1(Cl)C2(Cl)Cl inactive
O=Cc1ccco1 inactive
c1ccc(NNc2ccccc2)cc1 active
Clc1ccc(C(c2ccc(Cl)cc2)C(Cl)Cl)cc1 inactive
O=[N+]([O-])c1ccc(Oc2ccc(Cl)cc2Cl)cc1 inactive

Please examine the following record next.
*Q* Name the outcome recorded for `CCCCOC(=O)c1ccccc1C(=O)OCc1ccccc1` in the assay.
*A* active

---

assay_summary: ATG_PBREM_CIS: Attagene CIS-FACTORIAL HepG2 Assay for human Phenobarbital-responsive Enhancer Module (PBREM) (AID 2282955)
condition_info: HepG2 PBREM cis-reporter, Attagene multiplexed transcription; actives raise or lower the signal
Calls of active or inactive are those of the source. Rule for the calls: active = hit-call score of the fitted dose curve at least 0.9, where 1 is the maximum; inactive = score below 0.9.
Entry note: the call must match one of Yes for active, No for inactive

Oc1ccc2ccc3cccc4ccc1c2c34 No

*Q* Name the outcome recorded for `CN(C)c1ccc(C(=O)c2ccc(N(C)C)cc2)cc1` in the assay.
*A* No

*Q* Name the outcome recorded for `CO[C@@H]1[C@H](OC(=O)NC(=O)CCl)CC[C@]2(CO2)[C@H]1[C@@]1(C)O[C@@H]1CC=C(C)C` in the assay.
*A* No

*Q* Name the outcome recorded for `CC(C)(OOC(C)(C)c1ccccc1)c1ccccc1` in the assay.
*A* Yes

*Q* Name the outcome recorded for `Oc1ccccc1Cl` in the assay.
*A* No

*Q* Name the outcome recorded for `O=C(N[C@H](c1ccccc1)[C@@H]1CN2CCC1CC2)c1c(Cl)ccc(C(F)(F)F)c1Cl` in the assay.
*A* No

*Q* Name the outcome recorded for `OCCOCCO` in the assay.
*A* No

*Q* Name the outcome recorded for `CCN(CC)CCO` in the assay.
*A* No

*Q* Name the outcome recorded for `COC(=O)Nc1nc2ccccc2[nH]1` in the assay.
*A* No

---

Read-out: Interleukin-8 (IL8), CXCL8 (gene 3576)
assay_summary: BSK_LPS_IL8: BioMAP Diversity Plus: LPS Assay for Interleukin-8 (IL8) Biomarker Activity (AID 2283078)
condition_info: primary human HUVEC with PBMC; actives raise or lower the signal
The source made the active and inactive calls. Rule for the calls: active = hit-call score of the fitted dose curve at least 0.9, where 1 is the maximum; inactive = score below 0.9.
Entry note: the call must match one of label 1 (active), label 0 (inactive)

molecule	class_label
Nc1ccc([N+](=O)[O-])cc1	label 0

*Q* Name the outcome recorded for `c1ccc2c(c1)-c1cccc3cccc-2c13` in the assay.
*A* label 0

*Q* Name the outcome recorded for `CC(C)(C)OOC(=O)c1ccccc1` in the assay.
*A* label 0

*Q* Name the outcome recorded for ClC1=C(Cl)C2(Cl)C3C(Cl)C=CC3C1(Cl)C2(Cl)Cl (centres undefined) in the assay.
*A* label 1

---

assay_summary: Tanguay_ZF_120hpf_JAW_legacy: (Legacy) Oregon State University Tanguay Lab 120 Hour Post-fertilization zebrafish Assay for Jaw Malformation (AID 2283638)
Results filed as inconclusive are left out. Activity calls are given as the source filed them. How the source made its calls: active means hit-call score of the fitted dose curve at least 0.9, where 1 is the maximum; inconclusive means response in the unintended direction; inactive means score below 0.9.
Entry note: the call must match one of class 1 for active, class 0 for inactive

Past entries and their recorded results:
molecule	class_label
Nc1cc(Cl)cc(C(=O)O)c1Cl	class 0
OCCCBr	class 0
CN(C)C(=O)Nc1ccc(Cl)cc1	class 0
CC(C)(C)OOC(C)(C)CCC(C)(C)OOC(C)(C)C	class 0
CC(C)(OOC(C)(C)c1ccccc1)c1ccccc1	class 0

*Q* Name the outcome recorded for C[N+](C)(C)CC1CO1 (configuration not stated) in the assay.
*A* class 0

*Q* Name the outcome recorded for `COC(=O)Nc1nc2ccccc2[nH]1` in the assay.
*A* class 0

*Q* Name the outcome recorded for `CC(C)(O)c1cnn2c(-c3ccc(F)c(-c4c(F)cccc4C#N)c3)cnc2n1` in the assay.
*A* class 0

*Q* Name the outcome recorded for `c1ccc(N=Nc2ccccc2)cc1` in the assay.
*A* class 0

*Q* Name the outcome recorded for `O=Cc1ccco1` in the assay.
*A* class 0

*Q* Name the outcome recorded for `Clc1ccc(C(c2ccc(Cl)cc2)C(Cl)(Cl)Cl)cc1` in the assay.
*A* class 0

---

Read-out: succinate dehydrogenase complex iron sulfur subunit B (SDHB), SDHB (gene 6390)
assay_summary: LTEA_HepaRG_SDHB: Life Technologies and Expression Analysis (LTEA) Assay for succinate dehydrogenase complex iron sulfur subunit B (SDHB) using HepaRG (AID 2283528)
condition_info: mRNA level, 48 h; actives raise or lower the signal
Experimental: LTEA_HepaRG is a cell based, multiplexed-readout assay that uses HepaRG, a human liver cell line, with measurements taken at 48 hours after chemical dosing on a 96-well plate.LTEA_HepaRG_SDHB is one of 102 assay component(s) measured in the LTEA HepaRG cell culture assay. It is a marker of Cell proliferation, survival, death.Data from the assay component LTEA_HepaRG_SDHB was analyzed into 1 endpoint. […]
Calls of active or inactive are those of the source. Rule for the calls: active = hit-call score of the fitted dose curve at least 0.9, where 1 is the maximum; inactive = score below 0.9.
Entry note: the call must match one of active, inactive

compound	class_label
CCN(CC)N=O	inactive
CCC[CH2][Sn]([Cl])([CH2]CCC)[CH2]CCC	active

*Q* Name the outcome recorded for c1ccc(C2CO2)cc1 (stereo not given) in the assay.
*A* inactive

*Q* Name the outcome recorded for `Nc1ccc(Cl)cc1N` in the assay.
*A* active

*Q* Name the outcome recorded for `Cc1ccc(N=C=O)cc1N=C=O` in the assay.
*A* inactive

*Q* Name the outcome recorded for `Clc1ccc(C(c2ccc(Cl)cc2)C(Cl)(Cl)Cl)cc1` in the assay.
*A* active

---

Read-out: cysteine-aspartic acid protease (CASP8), CASP8 (gene 841)
assay_summary: LTEA_HepaRG_CASP8: Life Technologies and Expression Analysis (LTEA) Assay for cysteine-aspartic acid protease (CASP8) using HepaRG (AID 2283480)
condition_info: mRNA level, 48 h; actives raise or lower the signal
The source made the active and inactive calls. Rule for the calls: active = hit-call score of the fitted dose curve at least 0.9, where 1 is the maximum; inactive = score below 0.9.
Entry note: the call must match one of Yes for active, No for inactive

Past entries and their recorded results:
compound	class_label
Clc1ccccc1Cl	No
O=[N+]([O-])C(Br)(CO)CO	No
N#CC(Br)Br	No
CN(C)c1ccccc1	No
CCCCC(CC)COC(=O)c1ccc(C(=O)OCC(CC)CCCC)c(C(=O)OCC(CC)CCCC)c1 (configuration not stated)	No
CN(C)[C@@H]1C(=O)C(C(N)=O)=C(O)[C@@]2(O)C(=O)C3=C(O)c4c(O)cccc4[C@@](C)(O)[C@H]3C[C@@H]12	No
COc1cc(C=O)cc2c1[C@H](COC(N)=O)[C@]1(OC(C)=O)ON2C[C@H]2[C@@H]1N2C(C)=O	Yes
O=P(OCCCl)(OCCCl)OCCCl	No
c1ccc(N=Nc2ccccc2)cc1	No
O=Cc1ccco1	No

*Q* Name the outcome recorded for `CCCCCCCCOC(=O)c1ccc(C(=O)OCCCCCCCC)c(C(=O)OCCCCCCCC)c1` in the assay.
*A* No

---

Read-out: Pselectin, SELP (gene 6403)
assay_summary: BSK_4H_Pselectin: BioMAP Diversity Plus: 4H Assay for Pselectin Biomarker Activity (AID 2283026)
condition_info: primary human endothelial cells (HUVEC); actives raise or lower the signal
Calls of active or inactive are those of the source. The calls were made as follows: active = hit-call score of the fitted dose curve at least 0.9, where 1 is the maximum; inactive = score below 0.9.
Entry note: the call must match one of yes = active, no = inactive

CCCCCCCCn1sccc1=O yes

*Q* Name the outcome recorded for `OCCCBr` in the assay.
*A* no

*Q* Name the outcome recorded for `[Cl-].[Cl-].[Hg+2]` in the assay.
*A* yes

*Q* Name the outcome recorded for `CN(C)c1ccc(C(=O)c2ccc(N(C)C)cc2)cc1` in the assay.
*A* no

---

assay_summary: BSK_LPS_PGE2: BioMAP Diversity Plus: LPS Assay for Prostaglandin E2 (PGE2) Biomarker Activity (AID 2283082);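 for AC50: secreted prostaglandin E2 measured by ELISA in LPS-stimulated co-culture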
condition_info: primary human HUVEC with PBMC; actives raise or lower the signal
Method: BSK_LPS is a cell-based, multiplexed-readout assay that uses umbilical vein endothelium and peripheral blood mononuclear cells, a human vascular primary cell co-culture, with measurements taken at 24 hours after chemical dosing in a 96-well plate.BSK_LPS_PGE2 is an assay component measured in the BSK_LPS assay. It measures PGE2 antibody related to regulation of gene expression using ELISA technology.Data from the assay component BSK_LPS_PGE2 was analyzed into 1 assay endpoint. […]
Active and inactive are the calls of the source. Rule for the calls: active = hit-call score of the fitted dose curve at least 0.9, where 1 is the maximum; inactive = score below 0.9.
reported_metric: AC50

Examples with their reported AC50 follow.
compound	AC50
Cc1ccc(N)c(N)c1	20 µM (active)
[As]#[In]	inactive
CS(=O)(=O)NC(=O)c1cc(Oc2ccc(C(F)(F)F)cc2Cl)ccc1[N+](=O)[O-]	inactive
c1ccc(C2CO2)cc1 (stereo unspecified)	inactive
Nc1ccc(N=Nc2ccccc2)cc1	3.55 µM (active)
Cc1cc(N=Nc2ccccc2C)ccc1N	3.97 µM (active)
CC(C)(C)C(O)(CCc1ccc(Cl)cc1)Cn1cncn1 (stereo unspecified)	inactive
Oc1ccc2ccc3cccc4ccc1c2c34	4.03 µM (active)
Nc1ccc(Cc2ccc(N)cc2)cc1	8.34 µM (active)
Clc1ccc(Cl)c(Cl)c1	inactive

# context switch: different compound, same AC50
*Q* Please look at this compound and report its AC50: `[Cl-].[Cl-].[Hg+2]`
*A* inactive
